- Method Description: Solubility
- Type: physicochemical
- Conditions: aqueous medium, aqueous buffer; across the physiological pH range; read-out: aqueous solubility
Measured Property: solubility

# input Tell us which solubility value is on record for CC(C)CCC[C@@H](C)[C@H]1CC[C@H]2[C@@H]3CCC4=C/C(=N/O)CC[C@]4(C)[C@H]3CC[C@]12C (stereo in doubt)
# output < 5 µg/mL

###

- System: human SMN2 pre-mRNA
- Method Description: SMN2 splicing in SMA Type 1 fibroblasts (RT-PCR)
- Format: cell-based
- Conditions: Fibroblast, 24 hours, read-out: EC50 for FL SMN2 mRNA
Measured Property: EC50 (nM)
Provide the reading as a plain figure in nM.

# input # return recorded EC50 for input Cc1cn2nc(-c3cc(=O)n4cc(N5CCNC6(CC6)C5)ccc4n3)cc(C)c2n1 [Example 20]
# output 29

Reference for the values: patent US11938136B2
